From: ChEMBL document CHEMBL5620362

# Method description: AUClast in ICR mouse at 3 mg/kg, iv
# Assay type: ADME, organism-based
# Test conditions: in vivo

Chemical structure | AUC(0-t) [ng·h/mL]
C=C(C)[C@@H]1CC[C@]2(C(=O)NCCCN(C)C)CC[C@]3(C)[C@H](CC[C@@H]4[C@@]5(C)CC[C@H](O)C(C)(C)[C@@H]5CC[C@]43C)[C@@H]12 | 2980
